Record form. Attribute: growth. Fill in for each entry.
- Tested on: NCI-H226 lung
- Test Name: NCI-60 one-dose screen, 48 h (100 = growth as untreated, 0 = no growth, -100 = all killed)
- Study Conditions: 10 µM unless noted
This is part of a sample that, as a whole, favours compounds with a hit. Of some 83,000 tested, about 20% had one in any assay.
Numbers only, in %.

| Molecule | Quantity Measured | Reading Unit | Observed |
| --- | --- | --- | --- |
| CN(C)CCNc1nc2ccccc2c2c(=O)c3cc(F)ccc3sc12 | growth | % | 83.3 |
| O=C(Nc1ccc(-c2nc(-c3cccc(OCCN4CCOCC4)c3)c(-c3ccnc(Br)c3)[nH]2)cc1)c1ccccc1 | growth | % | 52.8 |
| COc1ccc(NC2=C(Br)C(=O)C(C)=C(C)C2=O)cc1 | growth | % | 75.5 |
| Cc1ccc2c(-c3cc(-c4ccccc4)nc(N)c3C#N)cc(=O)oc2c1 | growth | % | 95.9 |
| O=c1c2cccc(Cl)c2sc2c(NCCCNCCO)nc3ccccc3c12 | growth | % | 67.7 |

// for each molecule below, give its growth
1. O=C1CCC/C=C\C[C@H]2C=CC(=O)/C2=C/C[C@H](CCc2cccc(C(F)(F)F)c2)O1
2. CCOC(=O)CC1C(COC(=O)NC)OC(n2cnc3c(NC(=O)Nc4ccccc4)ncnc32)C1O[Si](C)(C)C(C)(C)C (centres undefined)
3. COc1ccc2c(c1)/C(=C/c1sc(=S)n(Cc3ccco3)c1O)C=N2
4. CN(C)c1ccc(/C=N\Nc2cc(=O)[nH]c3ccc(Cl)cc23)cc1
5. Cc1nc(/N=C(\N)NC(=O)Nc2ccccc2Cl)sc1C
6. CC(=O)N1N=C(c2ccc(Nc3nc(Nc4ccc(F)cc4)nc(Nc4ccc(Cl)cc4)n3)cc2)CC1c1ccc(Cl)cc1 (centres undefined)
7. Cc1ccc(S(=O)(=O)Oc2ccc(NC(=O)c3ccc(Cl)cc3)cc2)cc1

[-36.2, 55.5, 71.4, 75, 68, 83.8, 109]

----------
- Tested on: MDA-MB-435 melanoma
- Test Name: NCI-60 one-dose screen, 48 h (100 = growth as untreated, 0 = no growth, -100 = all killed)
- Study Conditions: 10 µM unless noted
About 83,000 compounds went through this panel and 20% of them were active in at least one assay; those are over-represented in the sample as a whole. Activity calls are given as the source filed them. The calls were made as follows: active = growth percent below 10; inactive = the rest.
Quantity Measured: growth

Example molecules with recorded growth:
| Molecule | growth |
| --- | --- |
| NCCCNc1nc2ccccc2c2c(=O)c3cc(OC(F)(F)F)ccc3sc12 | -79.2% (active) |
| CCCCCCCCCCCCCCCCCCOc1ccccc1CC(=O)OCC[N+](CC)(CC)CC | 11% (inactive) |
| O=S(=O)(NCCCNc1cc(-c2c(-c3cccc(O)c3)nc3sccn23)ccn1)c1cccc2ccccc12 | 35.6% (inactive) |

// for each molecule below, give its growth
1. C#Cc1cccc(NC(=O)c2ccc(NC(=O)C=C)cc2)c1
2. CCC(C)(c1cc(C(C)(C)C)c(O)c(C(C)(C)C)c1)c1cc(C(C)(C)C)c(O)c(C(C)(C)C)c1
3. c1ccc2cc(C[n+]3ccn(CCCCCCCCCCCCn4cc[n+](Cc5ccc6ccccc6c5)c4)c3)ccc2c1
4. Oc1c(I)cc(I)cc1CNCCCN(Cc1ccccn1)Cc1ccccn1
5. COc1cc2cc(Oc3ccc(NC(=O)Nc4cccc(C(F)(F)F)c4)cc3)c(C)nc2cc1OCCN1CCOCC1
6. COc1ccc2sc3c(NCCCNCCO)nc4ccccc4c3c(=O)c2c1
7. Cc1nn(-c2ccccc2)c2c1N=c1s/c(=C\c3ccc(C(F)(F)F)cc3)c(=O)n1CN2

["65.5% [8.25 µM] (inactive)", "105% (inactive)", "-97.1% (active)", "-90.7% (active)", "30.4% (inactive)", "10.6% (inactive)", "61.4% (inactive)"]

// for each molecule below, give its growth
1. N#C/C(=C\c1ccc(F)cc1)n1nc2cccc(F)c2n1
2. CC(=O)O.CN1[CH-]N(Cc2ccc(C#N)cc2)c2ccccc21.[Ag+]
3. Cc1c(C(=O)NCCN2CCOCC2)cn2ncnc(Oc3ccc(NC(=O)Nc4ccc(Cl)c(C(F)(F)F)c4)cc3)c12
4. CN1C(=O)CNC(=O)[C@H](NC(=O)c2nc3ccccc3cc2O)CSSC[C@H]1C(=O)NCCc1nc2ccccc2cc1O
5. CCN1C(=O)N(CC)C2Nn3c(s/c(=C4\C(=O)N(CCC(C)C)c5ccccc54)c3=O)=NC21 (centres undefined)
6. O=C1c2cccc3cccc(c23)C(=O)N1N1C(=O)c2cccc3c(NC4CCCCC4)ccc(c23)C1=O
7. CCCCNC(=O)Oc1ccc(/C(=C(\C)c2ccc(Cl)cc2)c2ccc(OCCN3CCCCC3)cc2)cc1
8. O=c1c2cc(C(F)(F)F)ccc2sc2c(NCCCNCCO)nc3ccccc3c12

1. -55.4% (active)
2. 106% (inactive)
3. 18% (inactive)
4. 42.4% (inactive)
5. 12.5% (inactive)
6. 102% (inactive)
7. 74.2% (inactive)
8. -73% (active)

Value source: PubChem BioAssay (NCI)
